The reported measurements were obtained from paper PMC4796655.

biological target: UbiG (Escherichia coli, UniProt P17993, I177A/P182A/V181A); construct: full-length, 240 residues, pET28a-UbiG (1-240), expressed in E. coli BL21 (DE3); purified as described previously; assay: isothermal titration calorimetry; assay type: binding; details: read-out: [drawing 1] /
Sequence (P17993 whole entry I177A/V181A/P182A): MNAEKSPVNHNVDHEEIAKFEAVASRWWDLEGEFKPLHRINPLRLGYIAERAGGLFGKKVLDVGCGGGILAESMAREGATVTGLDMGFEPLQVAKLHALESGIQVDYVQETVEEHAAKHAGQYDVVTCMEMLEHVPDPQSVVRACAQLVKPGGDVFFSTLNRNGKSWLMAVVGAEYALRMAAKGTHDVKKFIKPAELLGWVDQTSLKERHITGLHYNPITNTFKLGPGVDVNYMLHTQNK
Observation Type: Kd (µM)
The reply should contain only the number, in µM.

[in] I would be grateful if you could share the reported Kd for Nc1ncnc2c1ncn2[C@@H]1O[C@H](CSCC[C@H](N)C(=O)O)[C@@H](O)[C@H]1O [SAH] .
[out] 2.77

* * *

target: UbiG (Escherichia coli, UniProt P17993, DEL165-187); construct: full-length, 240 residues, pET28a-UbiG (1-240), expressed in E. coli BL21 (DE3); purified as described previously; experiment: isothermal titration calorimetry; X-ray structure of the complex […] Å; conditions: read-out: [drawing 1] /
Sequence (P17993 other isoform, or with tags, fused parts or gaps DEL165-187): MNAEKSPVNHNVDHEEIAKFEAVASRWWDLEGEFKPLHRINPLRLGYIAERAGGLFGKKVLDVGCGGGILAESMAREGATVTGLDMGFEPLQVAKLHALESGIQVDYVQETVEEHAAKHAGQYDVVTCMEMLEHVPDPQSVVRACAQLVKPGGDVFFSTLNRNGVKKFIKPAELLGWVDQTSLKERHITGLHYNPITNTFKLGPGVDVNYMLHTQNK
Observation Type: Kd

[in] GET /values?readout=Kd&system=UbiG (Escherichia coli, UniProt P17993, DEL165-187)&item= Nc1ncnc2c1ncn2[C@@H]1O[C@H](CSCC[C@H](N)C(=O)O)[C@@H](O)[C@H]1O
[out] 1.84 µM

* * *

molecular target: UbiG (Escherichia coli, UniProt P17993, V172A/Y176A); construct: full-length, 240 residues, pET28a-UbiG (1-240), expressed in E. coli BL21 (DE3); purified as described previously; assay: isothermal titration calorimetry; settings: read-out: [drawing 1] /
Sequence (P17993 whole entry V172A/Y176A): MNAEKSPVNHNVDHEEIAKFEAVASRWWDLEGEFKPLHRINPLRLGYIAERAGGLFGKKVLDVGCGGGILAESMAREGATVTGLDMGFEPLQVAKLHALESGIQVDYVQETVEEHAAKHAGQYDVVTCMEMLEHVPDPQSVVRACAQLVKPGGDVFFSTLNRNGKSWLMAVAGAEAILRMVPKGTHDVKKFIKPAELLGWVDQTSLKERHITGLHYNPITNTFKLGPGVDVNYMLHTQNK
Observation Type: pKd
Field pKd (float): negative decimal logarithm of the concentration in molar.

[in] I would be grateful if you could share the reported pKd for Nc1ncnc2c1ncn2[C@@H]1O[C@H](CSCC[C@H](N)C(=O)O)[C@@H](O)[C@H]1O .
[out] 5.47
